Target: T1, APG293 (human CD95L-T4) (human)
T1 chain: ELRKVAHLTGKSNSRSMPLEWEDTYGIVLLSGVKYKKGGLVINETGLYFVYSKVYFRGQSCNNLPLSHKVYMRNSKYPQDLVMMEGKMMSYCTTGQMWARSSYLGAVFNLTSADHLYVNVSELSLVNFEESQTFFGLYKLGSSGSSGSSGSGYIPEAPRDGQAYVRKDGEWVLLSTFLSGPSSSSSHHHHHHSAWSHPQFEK
Test: cell-based or functional assay
# reported EC50, Assay 3: antagonism of CD95L-T4-induced apoptosis on Jurkat A3 cells; entries follow
Give just the numeric value; ng/mL need not be written.

# Binder, Observed value
records = [
    ("scFv-minibody SEQ ID 50 (scFv) scFv: EVQLVESGGGLVQPGGSLRLSCAASGFSFSDHYWMCWVRQAPGKGLEWVACIYTADSDSYYADSVKGRFTISKDSSKNTLYLQMNSLRAEDTAVYYCARNGAYAGGPYGDLWGQGTLVTVSGGGSGGGSGGGSGGGSDIQMTQSPSSLSASVGDRVTITCKASQSIRTSLVWYQQKPGKAPKLLIYKASDLPSGVPSRFSGSGSGTDFTLTISSLQPEDFATYYCQSYDFRDTINNGHSFGQGTKVEIKGSGSSGQPREPQVYTLPPSREEMTKNQVSLTCLVKGFYPSDIAVEWESQGSPENNYKTTPPVLDSDGSFFLYSKLTVDKSRWQQGNVFSCSVMHEALHNHYTQKSLSLSPGSSSSSSAWSHPQFEK", 169),
    ("APG101 (Fc fusion, UniProt P25445 26-173, looked up, not shown: a dimerising Fc or GST) QVTDINSKGLELRKTVTTVETQNLEGLHHDGQFCHKPCPPGERKARDCTVNGDEPDCVPCQEGKEYTDKAHFSSKCRRCRLCDEGHGLEVEINCTRTQNTKCRCKPNFFCNSTVCEHCDPCTKCEHGIIKECTLTSNTKCKEEGSRSN", 707),
    ("rabbit monoclonal anti-CD95L antibody clone 145-12 (antibody, V domains shown, Rabbit monoclonal IgG from a hybridoma subclone; Only VH and VL are tied to the clone by name; also called mAB145-12; mAb145-12) VH: QSLEESGGDLVKPGASLTLTCTASGFSFSSGYDMCWVRQAPGKGLEWIACIDTDNDATYYASWAKGRFTISKPSSTTVLLQITSLTAADTATYFCATTHGDYVAFKLWGPGTLVTVSS VL: QVLTQTASSVSAAVGGTVTINCQSSQSVYKNNDLSWYQQKPRQPPKLLIYQASKLASGVPSRFKGSGSGTQFTLTIGDLECDDGATYYCAGGYTASIYAFGGGTEVVVKG", 225),
    ("scFv-minibody SEQ ID 49 (scFv) scFv: EVQLVESGGGLVQPGGSLRLSCAASGFSFSDHYWMCWVRQAPGKGLEWVACIYTADSDSYYASWAKGRFTISKDSSKNTLYLQMNSLRAEDTAVYYCARNGAYAGGPYGDLWGQGTLVTVSGGGSGGGSGGGSGGGSDIQMTQSPSSLSASVGDRVTITCKASQSIRTSLVWYQQKPGKAPKLLIYKASDLPSGVPSRFSGSGSGTDFTLTISSLQPEDFATYYCQSYDFRDTINNGHSFGQGTKVEIKGSGSSGQPREPQVYTLPPSREEMTKNQVSLTCLVKGFYPSDIAVEWESQGSPENNYKTTPPVLDSDGSFFLYSKLTVDKSRWQQGNVFSCSVMHEALHNHYTQKSLSLSPGSSSSSSAWSHPQFEK", 172),
]

Query :: Look up EC50, Assay 3: antagonism of CD95L-T4-induced apoptosis on Jurkat A3 cells for this binder: scFv-minibody SEQ ID 48 (scFv) scFv: QSLEESGGDLVKPGGTLTLTCTTSGFSFSDHYWMCWVRQAPGKGLEWIACIYTADSDSYYASWAKGRFTISKTSSTTVTLQMTSLTAADTATYFCARNGAYAGGPYGDLWGPGTLVTVSGGGSGGGSGGGSGGGSDIVMTQTPSSVEAAVGGTVTIKCQASQSIRTSLVWYQQKPGQPPKLLIYKASDLPSGVPSRFKGSGSGTQFTLTISDLESADAATYYCQSYDFRDTINNGHSFGGGTEVVVKGSGSSGQPREPQVYTLPPSREEMTKNQVSLTCLVKGFYPSDIAVEWESQGSPENNYKTTPPVLDSDGSFFLYSKLTVDKSRWQQGNVFSCSVMHEALHNHYTQKSLSLSPGSSSSSSAWSHPQFEK
Result :: 116
